- tested-on: recombinant BOD (bilirubin oxidase) derived from Myrothecium verrucaria MT-1 (Albifimbria verrucaria, UniProt Q12737)
- Construct: made in house; host or cells: Aspergillus sp
- Sequence (Q12737 39-572): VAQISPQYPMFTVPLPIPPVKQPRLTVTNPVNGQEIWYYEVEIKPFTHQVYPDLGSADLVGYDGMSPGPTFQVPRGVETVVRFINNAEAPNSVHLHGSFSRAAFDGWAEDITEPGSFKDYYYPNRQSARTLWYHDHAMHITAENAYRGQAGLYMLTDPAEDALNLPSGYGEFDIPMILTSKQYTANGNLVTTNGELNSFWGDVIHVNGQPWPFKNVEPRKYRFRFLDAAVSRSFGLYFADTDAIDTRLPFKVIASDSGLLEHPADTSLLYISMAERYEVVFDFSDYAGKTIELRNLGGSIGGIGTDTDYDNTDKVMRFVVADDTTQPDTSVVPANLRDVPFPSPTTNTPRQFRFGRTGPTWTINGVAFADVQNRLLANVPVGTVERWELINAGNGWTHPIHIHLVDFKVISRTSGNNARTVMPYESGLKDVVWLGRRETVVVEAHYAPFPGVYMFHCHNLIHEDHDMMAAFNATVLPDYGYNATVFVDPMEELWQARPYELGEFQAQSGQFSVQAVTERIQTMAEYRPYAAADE
- assay-explanation: BOD activity after leaving the BOD solution with an activity improving agent or comparative substance at 30° C. in a deoxygenated atmosphere (Test Example 1)
- Format: biochemical
- condition-context: left 14 days at 30° C., relative to Day 0, additive concentration as in Table 1
reported-endpoint: Activity (%) Day 14
Numbers only, in %.

Solved cases (2 shown):
molecule: O=CC(=O)O
Activity (%) Day 14: 194

molecule: NC(N)=O [Urea, urea, reference compound]
Activity (%) Day 14: 56

For each of the molecules below, state Activity (%) Day 14.
1. N.N.O=S(=O)(O)O [Ammonium sulfate, ammonium sulfate, reference compound]
2. O=c1[nH]c(=O)c2[nH]c(=O)[nH]c2[nH]1

Response line:
1: 65; 2: 156
